- MEASURED ON: corticotropin releasing factor 1 receptor
- EXPERIMENTAL PROTOCOL: cell-based or functional assay
Ends that are not written are not given here.
Consider the cut-off 20%. If the recorded CRF1R Emax % is strictly smaller, the label is Condition met; if not, the label is Condition not met.

| BINDER | CLASS ASSIGNMENT |
| --- | --- |
| ZGPPISIDLPTWLLRKVIEIEKQEKEKQQAANNRLLLDTI (C-terminal amide) [SEQ ID NO 284] | Condition not met |
| IVLSLDVVIGLLQILLEQARARAAREQATTNARILARV-NH2 [SEQ ID NO 214] | Condition met |
| ZGPPISIDLPIYLLRKMIEIEKQEKEKQQAANNALLLATI (C-terminal amide) [SEQ ID NO 237] | Condition met |
| NDDPPISIDLPFQLLRNMIEMARIENEREQAGLNAKYLAEV-NH2 [SEQ ID NO 258] | Condition not met |
| ZGPPISIDLPQYLLRKMIEIEKQEKEKQQAANNALLLATI (C-terminal amide) [SEQ ID NO 227] | Condition met |
| ZGPPISIDLPLWLLRKMIEIEKQEKEKQQAANNRLLLDTI (C-terminal amide) [SEQ ID NO 218] | Condition not met |
| ZGPPISIDLPFQLLRKVIEIEKQEKEKQQATTNARLLDRV (C-terminal amide) [SEQ ID NO 351] | Condition not met |
| NDDPPISIDLPLYLLRNMIEMARIENEREQAGLNAKYLAEV-NH2 [SEQ ID NO 271] | Condition not met |
| ZGPPISIDLPYWLLRKVIEIEKQEKEKQQAANNALLLDTI (C-terminal amide) [SEQ ID NO 311] | Condition not met |
| ZGPPISIDLPLQLLEKMIEIEKQEKEKQQATTNARLLDRV (C-terminal amide) [SEQ ID NO 247] | Condition not met |
| IVLSLDVPIGLLQILLEQEKARAAREQATTNARILARV-NH2 [SEQ ID NO 325] | Condition met |
| NDDPPISIDLPLQLLRNMIEMARIENEREQAGLNAKYLAEV-NH2 [SEQ ID NO 270] | Condition met |
